The reported numbers originate from paper PMC4567917.

Target: mouse GOAT (Mus musculus)
Sequence (P0C7A3 1-435): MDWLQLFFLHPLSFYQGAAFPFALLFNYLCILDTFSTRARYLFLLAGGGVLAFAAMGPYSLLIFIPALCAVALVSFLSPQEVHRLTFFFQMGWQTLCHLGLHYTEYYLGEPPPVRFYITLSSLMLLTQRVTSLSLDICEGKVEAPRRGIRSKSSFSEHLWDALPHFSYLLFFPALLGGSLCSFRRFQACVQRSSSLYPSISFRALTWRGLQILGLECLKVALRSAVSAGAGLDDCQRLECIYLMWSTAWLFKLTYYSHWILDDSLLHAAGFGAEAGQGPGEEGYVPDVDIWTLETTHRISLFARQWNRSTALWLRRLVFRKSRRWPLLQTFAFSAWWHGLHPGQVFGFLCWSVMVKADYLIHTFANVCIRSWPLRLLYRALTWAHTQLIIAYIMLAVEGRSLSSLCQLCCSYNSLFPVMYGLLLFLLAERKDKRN
Assay: Microsomal ghrelin octanoyltransferase assay
Conditions: ghrelin substrate varied; 1 μM octanoyl-CoA, 50 μM palmitoyl-CoA, 1 min at 30°C, 25 μg microsome protein (2 ng GOAT)
Non-standard residues stand in square brackets, D forms with d. No end group written: not given here. *: point of attachment. Biotin = O=C1N[C@H]2[C@H](CS[C@H]2CCCCC(=O)*)N1; Dap = NC[C@H](N)C(=O)O; Ahx = NCCCCCC(=O)O
Please go through the items and note down their Vmax (apparent).
Answers are plain numbers, in nmol/min/mg.

These solved cases illustrate the format of a correct answer.
>>> assay_value("GS[Dap]FLSPEHQRVQQRKESKKPPAKLQPK(Biotin)G [Dap3-Ghrelin27]")
85
>>> assay_value("GS(Dap)FLSPEHQ(Ahx)K(Biotin)G [Dap3-Ghrelin10]")
74
>>> assay_value("GSSFLSPEHQRVQQRKESKKPPAKLQPK (Biotin)G (GSSFLSPEHQRVQQRKESKKPPAKLQPK-{Gly(Biotin)}; not fully specified) [Ghrelin27]")
230

Attention now turns to another entry.
Note to self: Vmax (apparent) recorded for GSSFLSPEHQ[Ahx]K(Biotin)G [Ghrelin10] was 160
